Activity for assorted compounds
# assayProtocol: Reversal of multi-drug resistance in human KVB cells assessed as increase in PTX-induced cytotoxicity by measuring cell survival at 5 uM measured after 72 hrs incubation in presence of 100 nM paclitaxel by MTT assay relative to control
# Assay type: functional, KBV
Record the value in %, omitting the unit from your answer.

Consider the following illustrative entries.
[[record]]
linenotation = "CC(=O)N1CCC[C@H]1C(=O)N[C@H]1CC[C@]2(C)[C@H]3C[C@@H](O)[C@@H]4[C@@H]([C@]5(C)CC[C@H](C(C)(C)O)O5)CC[C@@]4(C)[C@]3(C)CC[C@H]2C1(C)C"
recordednumber = 80

[[record]]
linenotation = "CC(C)(O)[C@H]1CC[C@@](C)([C@H]2CC[C@]3(C)[C@@H]2[C@H](O)C[C@@H]2[C@@]4(C)CC[C@H](NC(=O)[C@H]5CCCN5)C(C)(C)[C@@H]4CC[C@]23C)O1"
recordednumber = 73


Now let's try a different one.
Please report the recorded Activity for CC(C)(C)OC(=O)N1CCC[C@@H]1C(=O)N[C@H]1CC[C@]2(C)[C@H]3C[C@@H](O)[C@@H]4[C@@H]([C@]5(C)CC[C@H](C(C)(C)O)O5)CC[C@@]4(C)[C@]3(C)CC[C@H]2C1(C)C . 36

====

# assayProtocol: Cytotoxicity against human HK-2 cells assessed as cell survival measured after 72 hrs incubation by MTT assay
# Type: toxicity, cell-based
property: IC50 at 72 h (µM)
Record the value in µM, omitting the unit from your answer.

Please report the recorded IC50 at 72 h for COc1ccc(CCN(C)CCCC(C#N)(c2ccc(OC)c(OC)c2)C(C)C)cc1OC (stereo unspecified) . 53.4

====

# assayProtocol: Reversal of multi-drug resistance in human KVB cells assessed as increase in PTX-induced cytotoxicity by measuring cell survival at 5 uM measured after 72 hrs incubation in presence of 100 nM paclitaxel by MTT assay relative to control
# Assay type: functional, KBV
property: Activity (%)
Record the value in %, omitting the unit from your answer.

Please report the recorded Activity for CC(C)(C)OC(=O)N1CC(CC(=O)N[C@H]2CC[C@]3(C)[C@H]4C[C@@H](O)[C@@H]5[C@@H]([C@]6(C)CC[C@H](C(C)(C)O)O6)CC[C@@]5(C)[C@]4(C)CC[C@H]3C2(C)C)C1 . 36

Please report the recorded Activity for CC(C)(O)[C@H]1CC[C@@](C)([C@H]2CC[C@]3(C)[C@@H]2[C@H](O)C[C@@H]2[C@@]4(C)CC[C@H](NC(=O)[C@@H]5COCCN5)C(C)(C)[C@@H]4CC[C@]23C)O1 . 82

Please report the recorded Activity for CC(C)(O)[C@H]1CC[C@@](C)([C@H]2CC[C@]3(C)[C@@H]2[C@H](O)C[C@@H]2[C@@]4(C)CC[C@H](NC(=O)[C@H]5CCCCN5)C(C)(C)[C@@H]4CC[C@]23C)O1 . 56

====

# assayProtocol: Reversal of multi-drug resistance in human KVB cells assessed as increase in PTX-induced cytotoxicity by measuring cell survival at 5 uM measured after 72 hrs incubation in presence of 100 nM paclitaxel by MTT assay relative to control
# Type: functional, KBV
Threshold-based label: Activity under 80% gives Satisfied, Activity not under 80% gives Not satisfied.

I'd appreciate it if you could check whether CC(C)(O)[C@H]1CC[C@@](C)([C@H]2CC[C@]3(C)[C@@H]2[C@H](O)C[C@@H]2[C@@]4(C)CC[C@H](NC(=O)[C@H]5CCC(=O)N5)C(C)(C)[C@@H]4CC[C@]23C)O1 has Activity smaller than 80%. Not satisfied

====

# assayProtocol: Reversal of multi-drug resistance in human KVB cells assessed as increase in PTX-induced cytotoxicity by measuring cell survival at 10 uM measured after 72 hrs incubation in presence of 100 nM paclitaxel by MTT assay relative to control
# Type: functional, KBV
Threshold-based label: Activity under 60% gives T, Activity not under 60% gives F.

[[record]]
linenotation = "CC(C)(O)[C@H]1CC[C@@](C)([C@H]2CC[C@]3(C)[C@@H]2[C@H](O)C[C@@H]2[C@@]4(C)CC[C@H](NC(=O)[C@@H]5CCC(=O)N5)C(C)(C)[C@@H]4CC[C@]23C)O1"
discretelabel = "F"

[[record]]
linenotation = "CC(C)(C)OC(=O)N1CCCC[C@H]1C(=O)N[C@H]1CC[C@]2(C)[C@H]3C[C@@H](O)[C@@H]4[C@@H]([C@]5(C)CC[C@H](C(C)(C)O)O5)CC[C@@]4(C)[C@]3(C)CC[C@H]2C1(C)C"
discretelabel = "T"

[[record]]
linenotation = "CC(C)(O)[C@H]1CC[C@@](C)([C@H]2CC[C@]3(C)[C@@H]2[C@H](O)C[C@@H]2[C@@]4(C)CC[C@H](NC(=O)[C@@H]5CCC(=O)O5)C(C)(C)[C@@H]4CC[C@]23C)O1"
discretelabel = "F"

[[record]]
linenotation = "CC(C)(O)[C@H]1CC[C@@](C)([C@H]2CC[C@]3(C)[C@@H]2[C@H](O)C[C@@H]2[C@@]4(C)CC[C@H](NC(=O)[C@H]5CCCN5)C(C)(C)[C@@H]4CC[C@]23C)O1"
discretelabel = "F"

[[record]]
linenotation = "CC(C)(C)OC(=O)N1CCC[C@@H]1C(=O)N[C@H]1CC[C@]2(C)[C@H]3C[C@@H](O)[C@@H]4[C@@H]([C@]5(C)CC[C@H](C(C)(C)O)O5)CC[C@@]4(C)[C@]3(C)CC[C@H]2C1(C)C"
discretelabel = "T"


Note: attention shifts to another entry.
I'd appreciate it if you could check whether CC(C)(O)[C@H]1CC[C@@](C)([C@H]2CC[C@]3(C)[C@@H]2[C@H](O)C[C@@H]2[C@@]4(C)CC[C@H](NC(=O)[C@H]5CCCNC5)C(C)(C)[C@@H]4CC[C@]23C)O1 has Activity smaller than 60%. T

====

IC50 at 72 h for assorted molecules
# assayProtocol: Cytotoxicity against HUVEC cells assessed as cell survival measured after 72 hrs incubation by MTT assay
# Assay type: toxicity, cell-based
# conditionNotes: human

Consider the following illustrative entries.
[[record]]
molecule = "CC(C)(C)OC(=O)N1CC(CC(=O)N[C@H]2CC[C@]3(C)[C@H]4C[C@@H](O)[C@@H]5[C@@H]([C@]6(C)CC[C@H](C(C)(C)O)O6)CC[C@@]5(C)[C@]4(C)CC[C@H]3C2(C)C)C1"
property = "IC50 at 72 h"
result = "> 100 µM"

[[record]]
molecule = "COc1cc2c(cc1OC)CN(CCc1ccc(NC(=O)c3cc(OC)c(OC)cc3NC(=O)c3cnc4ccccc4c3)cc1)CC2"
property = "IC50 at 72 h"
result = "40.3 µM"


Please report the recorded IC50 at 72 h for COc1ccc(CCN(C)CCCC(C#N)(c2ccc(OC)c(OC)c2)C(C)C)cc1OC (stereo not drawn) . > 100 µM

====

# assayProtocol: Cytotoxicity against human KBV cells assessed as cell survival at 10 uM measured after 72 hrs incubation by MTT assay relative to control
# Assay type: functional
# conditionNotes: read-out: Activity
property: viability at 10 µM (%)
Record the value in %, omitting the unit from your answer.

Consider the following illustrative entries.
[[record]]
linenotation = "CC(C)(O)[C@H]1CC[C@@](C)([C@H]2CC[C@]3(C)[C@@H]2[C@H](O)C[C@@H]2[C@@]4(C)CC[C@H](NC(=O)[C@@H]5C[C@@H](F)CN5)C(C)(C)[C@@H]4CC[C@]23C)O1"
property = "viability at 10 µM"
recordednumber = 99

[[record]]
linenotation = "CC(C)(O)[C@H]1CC[C@@](C)([C@H]2CC[C@]3(C)[C@@H]2[C@H](O)C[C@@H]2[C@@]4(C)CC[C@H](NC(=O)[C@@H]5CC(F)(F)CN5)C(C)(C)[C@@H]4CC[C@]23C)O1"
property = "viability at 10 µM"
recordednumber = 95

[[record]]
linenotation = "CC(C)(O)[C@H]1CC[C@@](C)([C@H]2CC[C@]3(C)[C@@H]2[C@H](O)C[C@@H]2[C@@]4(C)CC[C@H](NC(=O)CC5CNC5)C(C)(C)[C@@H]4CC[C@]23C)O1"
property = "viability at 10 µM"
recordednumber = 96


Please report the recorded viability at 10 µM for CC(C)(C)OC(=O)N1CC[C@@H](C(=O)N[C@H]2CC[C@]3(C)[C@H]4C[C@@H](O)[C@@H]5[C@@H]([C@]6(C)CC[C@H](C(C)(C)O)O6)CC[C@@]5(C)[C@]4(C)CC[C@H]3C2(C)C)C1 . 81

====

# measurementTarget: ATP-dependent translocase ABCB1 (Homo sapiens, UniProt P08183)
# Sequence (P08183 whole entry): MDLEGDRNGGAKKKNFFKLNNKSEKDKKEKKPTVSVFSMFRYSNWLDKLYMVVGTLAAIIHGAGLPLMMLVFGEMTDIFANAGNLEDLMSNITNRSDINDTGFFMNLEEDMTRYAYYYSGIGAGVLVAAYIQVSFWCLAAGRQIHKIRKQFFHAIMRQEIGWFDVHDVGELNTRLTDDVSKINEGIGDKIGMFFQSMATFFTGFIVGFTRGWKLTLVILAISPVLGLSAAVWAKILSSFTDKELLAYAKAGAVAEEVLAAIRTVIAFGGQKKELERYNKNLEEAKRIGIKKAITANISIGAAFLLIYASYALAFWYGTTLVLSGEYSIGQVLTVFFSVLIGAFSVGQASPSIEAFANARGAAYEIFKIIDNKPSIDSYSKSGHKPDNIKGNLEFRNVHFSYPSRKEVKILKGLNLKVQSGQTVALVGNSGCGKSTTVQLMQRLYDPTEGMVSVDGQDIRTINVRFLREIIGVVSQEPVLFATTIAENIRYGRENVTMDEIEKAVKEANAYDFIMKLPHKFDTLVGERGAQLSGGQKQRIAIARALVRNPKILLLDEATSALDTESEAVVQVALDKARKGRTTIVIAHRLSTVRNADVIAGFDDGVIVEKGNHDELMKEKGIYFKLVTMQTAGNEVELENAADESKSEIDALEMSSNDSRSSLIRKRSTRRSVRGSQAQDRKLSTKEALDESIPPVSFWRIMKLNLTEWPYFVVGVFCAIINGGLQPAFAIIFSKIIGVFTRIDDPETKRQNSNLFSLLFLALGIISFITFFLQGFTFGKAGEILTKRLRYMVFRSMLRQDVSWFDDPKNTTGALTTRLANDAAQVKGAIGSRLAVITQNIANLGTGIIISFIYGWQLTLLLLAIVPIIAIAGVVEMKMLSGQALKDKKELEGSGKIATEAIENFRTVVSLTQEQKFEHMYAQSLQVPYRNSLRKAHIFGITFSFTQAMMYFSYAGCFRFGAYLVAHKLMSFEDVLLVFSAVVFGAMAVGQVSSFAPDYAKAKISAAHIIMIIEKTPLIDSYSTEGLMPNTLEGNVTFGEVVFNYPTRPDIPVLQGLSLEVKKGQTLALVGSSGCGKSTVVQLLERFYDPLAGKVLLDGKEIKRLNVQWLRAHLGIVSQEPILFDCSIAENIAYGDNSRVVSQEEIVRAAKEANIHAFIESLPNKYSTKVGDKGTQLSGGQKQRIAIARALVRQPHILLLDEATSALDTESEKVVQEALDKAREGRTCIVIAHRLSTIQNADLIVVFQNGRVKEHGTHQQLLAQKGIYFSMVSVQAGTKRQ
# assayProtocol: Substrate activity at Pgp in human KVB cells assessed as intracellular accumulation measured after 4 hrs by LC-MS/MS analysis
# Format: cell-based
# conditionNotes: kbv
property: Activity

Consider the following illustrative entries.
[[record]]
compound = "CC(C)(C)OC(=O)NCCCCCC(=O)N[C@H]1CC[C@]2(C)[C@H]3C[C@@H](O)[C@@H]4[C@@H]([C@]5(C)CC[C@H](C(C)(C)O)O5)CC[C@@]4(C)[C@]3(C)CC[C@H]2C1(C)C"
property = "Activity"
result = "Active"

[[record]]
compound = "CC(C)(O)[C@H]1CC[C@@](C)([C@H]2CC[C@]3(C)[C@@H]2[C@H](O)C[C@@H]2[C@@]4(C)CC[C@H](NC(=O)[C@@H]5CCCN5)C(C)(C)[C@@H]4CC[C@]23C)O1"
property = "Activity"
result = "Not Active"

[[record]]
compound = "CC(C)(C)OC(=O)N1CCC[C@@H]1C(=O)N[C@H]1CC[C@]2(C)[C@H]3C[C@@H](O)[C@@H]4[C@@H]([C@]5(C)CC[C@H](C(C)(C)O)O5)CC[C@@]4(C)[C@]3(C)CC[C@H]2C1(C)C"
property = "Activity"
result = "Active"

[[record]]
compound = "CC(C)(O)[C@H]1CC[C@@](C)([C@H]2CC[C@]3(C)[C@@H]2[C@H](O)C[C@@H]2[C@@]4(C)CC[C@H](NC(=O)[C@@H]5CCCCN5)C(C)(C)[C@@H]4CC[C@]23C)O1"
property = "Activity"
result = "Active"

[[record]]
compound = "CC(C)(C)OC(=O)N1CC(CC(=O)N[C@H]2CC[C@]3(C)[C@H]4C[C@@H](O)[C@@H]5[C@@H]([C@]6(C)CC[C@H](C(C)(C)O)O6)CC[C@@]5(C)[C@]4(C)CC[C@H]3C2(C)C)C1"
property = "Activity"
result = "Active"

[[record]]
compound = "CC(C)(O)[C@H]1CC[C@@](C)([C@H]2CC[C@]3(C)[C@@H]2[C@H](O)C[C@@H]2[C@@]4(C)CC[C@H](O)C(C)(C)[C@@H]4CC[C@]23C)O1"
property = "Activity"
result = "Not Active"


Now let's try a different one.
Please report the recorded Activity for COc1ccc(CCN(C)CCCC(C#N)(c2ccc(OC)c(OC)c2)C(C)C)cc1OC (configuration not stated) . Active
